Test system: Liver microsome
assay-details: Metabolic stability in rat liver microsomes assessed as half life by LC-MS/MS analysis in presence of NADPH
Would you mind labelling by t1/2? At or over 10 min is fulfilled, under is not fulfilled.

Answered cases to consult:
> print(dat)
                                   molecule      system.name          group
1  NCCOCCOCCOCCOCCN1CCN(C(c2ccccc2)c2ccc(Cl)cc2)CC1 (racemic)  Liver microsome      fulfilled
2   CCN1CCN(C(c2ccc(Cl)cc2)c2ccc(Cl)cc2)CC1  Liver microsome  not fulfilled
3  OCCOCCN1CCN(C(c2ccc(Cl)cc2)c2ccc(Cl)cc2)CC1  Liver microsome      fulfilled
4    CN1CCN(C(c2ccc(Cl)cc2)c2ccc(Cl)cc2)CC1  Liver microsome      fulfilled
5  NCCOCCN1CCN(C(c2ccccc2)c2ccc(Cl)cc2)CC1 (racemic)  Liver microsome      fulfilled

stdin: Can CN1CCN(C(c2ccccc2)c2ccc(Cl)cc2)CC1 (racemic) be said to have t1/2 at or above 10 min?
stdout: not fulfilled
